target: Hexose transporter 1 (Plasmodium falciparum); test: ST_JUDE_LEISH: Cytotoxicity at 2uM final concentration against transgenic Leishmania Mexicana promastigotes LmPfHT that are glucose transport deficient and complemented with the Plasmodium falciparum hexose transporter. Activity is measured by DNA content using SYBR green in vitro; assay type: functional
Parameter inhibition: see the listing below.
endpointName: inhibition (%)

> print(dat)
                                    compound  observedvalue
 1  Cc1cccc(NC(=O)NC2CCN(CCCCCNC(=O)/C=C/c3ccc(Cl)c(Cl)c3)CC2)c1           3.83
 2  COc1ccc2nccc([C@@H](O)CN3CCC(NC(=O)c4ccc(CN5CCN(c6cccc(C)c6)CC5C)cc4)CC3)c2c1 (some centres undefined)           1.46
 3  CC(NC(=O)NC1CCC(CCN2CCCc3ccccc32)CC1)c1cccc2ccccc12 (centres undefined)            1.8
 4  O=C(Nc1ccccc1O)C1CCN(c2ncnc3cc(-c4ccc(F)cc4)sc23)CC1           2.48
 5             Cc1cccc(Nc2nc(N)c3ccccc3n2)c1           16.5
 6  COC(=O)c1ccc2nc(-c3ccc(C(=O)NC4CCN(Cc5ccccc5)CC4)s3)[nH]c2c1           10.5
 7            N=C(N)NCCCN(Cc1ccccc1)c1ccccc1           2.61
 8  CCN(CC)CCN(Cc1ccc(-c2ccc(C(F)(F)F)cc2)nc1)C(=O)Cn1cc(Cc2cnn(C)c2)c(=O)n2nc(-c3ccccc3)cc12           3.48
 9  CNCCNCc1ccc(-c2ccc(-c3nc4cccc(C)c4[nH]3)s2)cc1           2.48
10    CCOc1ccc2[nH]c(C)cc(=NN=Cc3ccccc3)c2c1           2.11
11  O=C(Nc1cccc(-c2nn3ccccc3c2-c2ccnc(Nc3cccc(F)c3)n2)c1)c1c(F)ccc(F)c1F           9.13
12  CC(=O)c1cccc(NC(=O)N2CCCN(CCCCCNC(=O)/C=C/c3ccc(Cl)c(Cl)c3)CC2)c1          -0.03
13  COCCNCc1ccc(-c2cccc(CNc3ccc(OC)cc3)c2)cc1           8.16
14  CCOc1cc2c(cc1OCC)C(c1ccc(O)c(Cl)c1)NCC2 (centres undefined)           13.1
15  CN(C(=O)c1cc2c(-c3cncnc3)cccc2[nH]1)c1ccccc1          -0.81
16  CO/C(=C\C=C\c1cc2cc(Cl)c(Cl)cc2[nH]1)C(=O)NC1CC2CCC(C1)N2C (centres undefined)           1.93
17  Cc1ccc(CN2CCC(C(=O)Nc3ccc(-c4cc5ccccc5[nH]4)cc3)CC2)o1           9.24
18  Cc1n[nH]c2ccc(-c3ccc4nccc(N5CCC(N)CC5)c4c3)cc12           -0.1
19  COc1ccc2ccccc2c1C=NN=c1cc(C)[nH]c2cc(C(F)(F)F)ccc12           8.24
20  COc1cc(C=CC(=O)N2CCC(CCN3CCC(c4c[nH]c5ccccc45)CC3)CC2)cc(OC)c1           6.56
21  O=C(Nc1ccc(Cl)c(Cl)c1)Nc1ccc2nccc(N3CCNCC3)c2c1           0.06
22  CC(C)CCN1C(=O)C(NC(=O)Oc2ccccc2)C(=O)N(CC23CC4CC(CC(C4)C2)C3)c2ccccc21 (centres undefined)          -2.53
23  Cc1cc(C(=O)Nc2ccc3c(c2)CCN3C2CCN(Cc3cc(F)cc(F)c3F)C2)no1 (centres undefined)           1.36
24  CC(=O)Nc1ccc(C(=O)NC2CCN(c3ccnc4cc(Cl)ccc34)C2)cc1 (centres undefined)           0.28
25  c1ccc2[nH]c(-c3ccc(-c4ccc(CN5CCCCC5)cc4)s3)nc2c1           0.62
26  CC(C)CNCc1cccc(-c2cccc(CNCCCN3CCN(C)CC3)c2)c1           0.17
27  O=C(Nc1ccccc1)N(Cc1ccc(-c2ccc(CNC3CCCC3)cc2)cc1)C1CCN(Cc2ccccc2)CC1           3.43
28  CCc1c(CCNCCc2cccc(CCNCCc3ccc(OC)c(OC)c3CC)c2)ccc(OC)c1OC          -1.49
29  COc1ccc(CN2CCCN(Cc3cccc(C(=O)Nc4ccc(C(C)(C)C)cc4)c3)CC2)cc1           5.46
30  O=C(Nc1ccc(CCNCCCc2ccccc2)cc1)Nc1ccc(Cl)c(Cl)c1          -0.63
31  O=C(/C=C/c1ccc(C(F)(F)F)cc1)N1CCC(CCN2CCC(c3c[nH]c4ccccc34)CC2)CC1           9.28
32  Cc1cnc(C(=O)Nc2ccc(-c3cccc(-c4nc5ccccc5[nH]4)c3)cc2)cn1           1.94
33  Oc1cccc(-c2cnc3ccc(NCc4ccc(F)cc4)nn23)c1           0.63
34  CCOc1ccc2c(=NN=Cc3c4ccccc4cc4ccccc34)cc(C)[nH]c2c1           1.13
35    Cc1ccc(O)cc1Nc1ccnc2cc(-c3ccccn3)ccc12           4.26
36     CCCCc1cc(NC2CCN(C)CC2)nc(Nc2ccccc2)n1           8.07
37  Cc1cc(N[C@@H](CC(C)C)C(=O)NCCOc2ccccc2)nc(NCC2CCCCC2)n1           9.67
38  NC(=O)C1CCN(Cc2cccc(-c3ccc(-c4nc5cc(C(F)(F)F)ccc5[nH]4)cc3)c2)CC1           -1.5
39  CN1CCC(N2CCN(Cc3cccc(-c4cccc(-c5nc6ccccc6[nH]5)c4)c3)CC2)CC1           0.09
